Biological target: human GLP-1 receptor (human, UniProt P43220 24-463)
Test: cell-based or functional assay
Bridges are numbered along the chain shown (N, C = ends). Where no end group is shown, it is not given here. [ ]: non-standard residue; d: D form. The star is where a group is joined. Acetyl(2-(4-imidazolyl)) = O=C(Cc1c[nH]cn1)*; Aib = CC(C)(N)C(=O)O
In vitro activity compared with native peptide (%) vs. GLP-1 values by entry
// note: answer is a bare numeric in %

Sample answers from the record:
Binder: H[Aib]EGTFTSDYSIAMDEIHQKDFVDWLLAEKC (bridge 16-20) [Triple agonist of SEQ ID NO: 80]
Numeric value: 8.1
--
Binder: {Acetyl(2-(4-imidazolyl))}-GQGTFTSDLSKQMDEERAREFIEWLLAQKPSSGAPPPSHG [Triple agonist of SEQ ID NO: 17]
Numeric value: 0.2
--
Binder: {Acetyl(2-(4-imidazolyl))}-[Aib]QGTFTSDYSICMDEKHQKDFVNWLLNTK (bridge 15-19) [Triple agonist of SEQ ID NO: 59]
Numeric value: 40.3

The binder {Acetyl(2-(4-imidazolyl))}-[Aib]QGTFTSDYSIAMDEIHQKDFVNWLLNTC (bridge 15-19) [Triple agonist of SEQ ID NO: 87] showed In vitro activity compared with native peptide (%) vs. GLP-1 equal to 0.9

The binder {Acetyl(2-(4-imidazolyl))}-GQGTFTSDLSKQMDSEAQQLFIEWLKNGGPSSGAPPPSHG [Triple agonist of SEQ ID NO: 16] showed In vitro activity compared with native peptide (%) vs. GLP-1 equal to 2.1

The binder {Acetyl(2-(4-imidazolyl))}-[Aib]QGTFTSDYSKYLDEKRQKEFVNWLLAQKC (bridge 15-19) [Triple agonist of SEQ ID NO: 93] showed In vitro activity compared with native peptide (%) vs. GLP-1 equal to 5.7

The binder {Acetyl(2-(4-imidazolyl))}-[Aib]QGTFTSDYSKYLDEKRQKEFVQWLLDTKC (bridge 15-19) [Triple agonist of SEQ ID NO: 89] showed In vitro activity compared with native peptide (%) vs. GLP-1 equal to 7.1

These data points were gathered from patent US20240024426A1.
